Entry source: ChEMBL document CHEMBL1145969

test: Selectivity index defined as mean of EC50 value for FM3A cells/mean of EC50 value for Plasmodium falciparum was determined; assay type: functional
Give Selectivity index for every item shown.
Please state the value as a number alone, without comment.

Write down Selectivity index measured for item CCCOC(=O)OC1=C(C)[C@@H]2C[C@H]3OC(=O)[C@H](OC(=O)OCCC)[C@H]4[C@]5(C(=O)OC)OC[C@]34[C@H]([C@@H](O)[C@@H]5O)[C@@]2(C)CC1=O
66

Annotate the compound COC(=O)[C@@]12OC[C@]34[C@H]([C@@H](O)[C@@H]1O)[C@@]1(C)CC(=O)C(OC(=O)OC(C)C)=C(C)[C@@H]1C[C@H]3OC(=O)[C@H](OC(=O)OC(C)C)[C@@H]24 with its measured Selectivity index.
138

State, in one line, measured Selectivity index of CCN(CC)CCCC(C)Nc1ccnc2cc(Cl)ccc12 (stereo not given) [CHLOROQUINE]
1780

Supply Selectivity index value. Item: CCOC(=O)OC1=C(C)[C@@H]2C[C@H]3OC(=O)[C@H](OC(=O)OCC)[C@H]4[C@]5(C(=O)OC)OC[C@]34[C@H]([C@@H](O)[C@@H]5O)[C@@]2(C)CC1=O
563

Report Selectivity index for COC(=O)[C@@]12OC[C@]34[C@H]([C@@H](O)[C@@H]1O)[C@@]1(C)CC(=O)C(OC(C)=O)=C(C)[C@@H]1C[C@H]3OC(=O)[C@H](OC(C)=O)[C@@H]24
410

Identify measured Selectivity index corresponding to CCCCOC(=O)OC1=C(C)[C@@H]2C[C@H]3OC(=O)[C@H](OC(=O)OCCCC)[C@H]4[C@]5(C(=O)OC)OC[C@]34[C@H]([C@@H](O)[C@@H]5O)[C@@]2(C)CC1=O
50

Specify measured Selectivity index for COC(=O)[C@@]12OC[C@]34[C@H]([C@@H](O)[C@@H]1O)[C@@]1(C)CC(=O)C(O)=C(C)[C@@H]1C[C@H]3OC(=O)[C@H](OC(C)=O)[C@@H]24 [BRUCEINE B] .
333

Read the entry COC(=O)O[C@H]1C(=O)O[C@@H]2C[C@H]3C(C)=C(O)C(=O)C[C@]3(C)[C@H]3[C@@H](O)[C@H](O)[C@@]4(C(=O)OC)OC[C@]32[C@@H]14 and write its reported Selectivity index.
164

----------
tested on: Plasmodium falciparum; experiment: In vitro antimalarial activity against Plasmodium falciparum; format: functional, organism-based
READOUT: pEC50
FYI, pEC50 means -log10 of a concentration in mol per litre.

Supply pEC50 measured with Plasmodium falciparum for COC(=O)O[C@H]1C(=O)O[C@@H]2C[C@H]3C(C)=C(O)C(=O)C[C@]3(C)[C@H]3[C@@H](O)[C@H](O)[C@@]4(C(=O)OC)OC[C@]32[C@@H]14 .
7.28

Write down the reported pEC50 (system: Plasmodium falciparum) of COC(=O)[C@@]12OC[C@]34[C@H]([C@@H](O)[C@@H]1O)[C@@]1(C)CC(=O)C(OC(C)=O)=C(C)[C@@H]1C[C@H]3OC(=O)[C@H](O)[C@@H]24
6.06

Provide pEC50, recorded with Plasmodium falciparum, of CCCOC(=O)OC1=C(C)[C@@H]2C[C@H]3OC(=O)[C@H](OC(=O)OCCC)[C@H]4[C@]5(C(=O)OC)OC[C@]34[C@H]([C@@H](O)[C@@H]5O)[C@@]2(C)CC1=O
7.00

Provide pEC50, tested on Plasmodium falciparum, for COC(=O)[C@@]12OC[C@]34[C@H]([C@@H](O)[C@@H]1O)[C@@]1(C)CC(=O)C(OC(=O)OC(C)C)=C(C)[C@@H]1C[C@H]3OC(=O)[C@H](OC(=O)OC(C)C)[C@@H]24 .
7.10

State the measured pEC50 (Plasmodium falciparum) of CCOC(=O)OC1=C(C)[C@@H]2C[C@H]3OC(=O)[C@H](OC(=O)OCC)[C@H]4[C@]5(C(=O)OC)OC[C@]34[C@H]([C@@H](O)[C@@H]5O)[C@@]2(C)CC1=O
7.19

Recall the reported pEC50 of CCCCOC(=O)OC1=C(C)[C@@H]2C[C@H]3OC(=O)[C@H](OC(=O)OCCCC)[C@H]4[C@]5(C(=O)OC)OC[C@]34[C@H]([C@@H](O)[C@@H]5O)[C@@]2(C)CC1=O on Plasmodium falciparum and write it down.
7.85

Give pEC50 for COC(=O)OC1=C(C)[C@@H]2C[C@H]3OC(=O)[C@H](OC(=O)OC)[C@H]4[C@]5(C(=O)OC)OC[C@]34[C@H]([C@@H](O)[C@@H]5O)[C@@]2(C)CC1=O tested on Plasmodium falciparum.
7.05
